These data points were gathered from ChEMBL document CHEMBL1123664.

Assay: Partition coefficient (logP)
Format: physicochemical
Conditions: octanol/water
Okay, here is how we bin by logP: bottom bin = under 0.7, middle bin = from 0.7 up to 1, top bin = 1 and over

molecule	group
CO[C@@]12C(COC(N)=O)C3=C(C(=O)C(C)=C(OCCCCl)C3=O)N1CC1NC12 (stereo partly specified)	top bin
CO[C@@]12C(COC(N)=O)C3=C(C(=O)C(C)=C(OCC4COC(C)(C)O4)C3=O)N1CC1NC12 (stereo partly specified)	middle bin
COC1=C(C)C(=O)C2=C(C1=O)[C@@H](COC(N)=O)[C@@]1(OC)[C@H]3N[C@H]3CN21 [MITOMYCIN A]	bottom bin
CO[C@@]12C(COC(N)=O)C3=C(C(=O)C(C)=C(OCc4ccco4)C3=O)N1CC1NC12 (stereo partly specified)	top bin
C#CCOC1=C(C)C(=O)C2=C(C1=O)C(COC(N)=O)[C@@]1(OC)C3NC3CN21 (stereo partly specified)	middle bin
CO[C@@]12C(COC(N)=O)C3=C(C(=O)C(C)=C(OCCSSCCO)C3=O)N1CC1NC12 (stereo partly specified)	top bin
CO[C@@]12C(COC(N)=O)C3=C(C(=O)C(C)=C(OCCO)C3=O)N1CC1C2N1C (stereo partly specified)	bottom bin
CO[C@@]12C(COC(N)=O)C3=C(C(=O)C(C)=C(OCCN4CCOCC4)C3=O)N1CC1NC12 (stereo partly specified)	bottom bin
CO[C@@]12C(COC(N)=O)C3=C(C(=O)C(C)=C(OCC4CCCO4)C3=O)N1CC1NC12 (stereo partly specified)	top bin
COCCOCCOC1=C(C)C(=O)C2=C(C1=O)C(COC(N)=O)[C@@]1(OC)C3NC3CN21 (stereo partly specified)	bottom bin
CCOC1=C(C)C(=O)C2=C(C1=O)C(COC(N)=O)[C@@]1(OC)C3NC3CN21 (stereo partly specified)	middle bin
CO[C@@]12C(COC(N)=O)C3=C(C(=O)C(C)=C(OC4CCOC4)C3=O)N1CC1NC12 (stereo partly specified)	middle bin
CO[C@@]12C(COC(N)=O)C3=C(C(=O)C(C)=C(OCCCO)C3=O)N1CC1NC12 (stereo partly specified)	bottom bin
CO[C@@]12C(COC(N)=O)C3=C(C(=O)C(C)=C(OCCSCCO)C3=O)N1CC1NC12 (stereo partly specified)	top bin
CO[C@@]12C(COC(N)=O)C3=C(C(=O)C(C)=C(OC(C)C)C3=O)N1CC1NC12 (stereo partly specified)	top bin
CO[C@@]12C(COC(N)=O)C3=C(C(=O)C(C)=C(OCc4ccccc4)C3=O)N1CC1NC12 (stereo partly specified)	top bin
C=CCOC1=C(C)C(=O)C2=C(C1=O)C(COC(N)=O)[C@@]1(OC)C3NC3CN21 (stereo partly specified)	middle bin
CO[C@@]12C(COC(N)=O)C3=C(C(=O)C(C)=C(OCCN(C)C)C3=O)N1CC1NC12 (stereo partly specified)	bottom bin
CO[C@@]12C(COC(N)=O)C3=C(C(=O)C(C)=C(OCC4CCCCO4)C3=O)N1CC1NC12 (stereo partly specified)	top bin
CO[C@@]12C(COC(N)=O)C3=C(C(=O)C(C)=C(OCC4CCC4)C3=O)N1CC1NC12 (stereo partly specified)	top bin
CCOCCOCCOC1=C(C)C(=O)C2=C(C1=O)C(COC(N)=O)[C@@]1(OC)C3NC3CN21 (stereo partly specified)	middle bin
